test: Antiproliferative activity against chinese hamster D4 cells expressing human folate receptor beta after 96 hrs by celltiter-blue cell viability assay
cond: Cricetulus griseus, D4, 96 h
pIC50: −log10 of the molar value.
property_measured: pIC50

smiles_str: Nc1nc2sc(CCCCCCc3ccc(C(=O)N[C@@H](CCC(=O)O)C(=O)O)cc3)cc2c(=O)[nH]1
property_measured: pIC50
lt_gt_eq: =
measured_value: 6.44
//
smiles_str: Nc1nc2sc(CCCc3ccc(C(=O)N[C@@H](CCC(=O)O)C(=O)O)cc3)cc2c(=O)[nH]1
property_measured: pIC50
lt_gt_eq: =
measured_value: 6.95
//
smiles_str: Nc1nc2sc(CCc3ccc(C(=O)N[C@@H](CCC(=O)O)C(=O)O)cc3)cc2c(=O)[nH]1
property_measured: pIC50
lt_gt_eq: <
measured_value: 6.00
//
smiles_str: Nc1nc2sc(CCCCCCCCc3ccc(C(=O)N[C@@H](CCC(=O)O)C(=O)O)cc3)cc2c(=O)[nH]1
property_measured: pIC50
lt_gt_eq: <
measured_value: 6.00
//
smiles_str: Nc1nc2sc(CCCCCCCc3ccc(C(=O)N[C@@H](CCC(=O)O)C(=O)O)cc3)cc2c(=O)[nH]1
property_measured: pIC50
lt_gt_eq: <
measured_value: 6.00
